Cited source for all entries: paper PMC3017781

- Substrate: O=c1cc(-c2cc(O)c(O)c(O)c2)oc2cc(O)cc(O)c12
- TEST_SUMMARY: purified protein
- CONDITION_DESCRIPTION: co-substrate SAM, saturating
ASSAY_ENDPOINT: Km (µM)
Please respond with the number in µM and leave the unit unwritten.

PROTEIN: TaOMT2 (Triticum aestivum; W259A) (protein) MGSIAAGADEDACMYALQLVSSSILPMTLKNAIELGLLETLMAAGGKFLTPAEVAAKLPSAANPEAPDMVDRMLRLLASYNVVSCRTEDGKDGRLSRRYGAAPVCKYLTPNEDGVSMSALALMNQDKVLMESWYYLKDAVLDGGIPFNKAYGMSAFEYHGTDPRFNRVFNEGMKNHSIIITKKLLESYKGFEGLGTLVDVGGGVGATVAAITAHYPTIKGINFDLPHVISEAPPFPGVTHVGGDMFQKVPSGDAILMKAILHDWSDEHCATLLKNCYDALPAHGKVVLVECILPVNPEATPKAQGVFHVDMIMLAHNPGGRERYEREFEALAKGAGFAAMKTTYIYANAWAIEFTK
Km [µM]: 131.0
//
PROTEIN: TaOMT2 (Triticum aestivum; W259Y) (protein) MGSIAAGADEDACMYALQLVSSSILPMTLKNAIELGLLETLMAAGGKFLTPAEVAAKLPSAANPEAPDMVDRMLRLLASYNVVSCRTEDGKDGRLSRRYGAAPVCKYLTPNEDGVSMSALALMNQDKVLMESWYYLKDAVLDGGIPFNKAYGMSAFEYHGTDPRFNRVFNEGMKNHSIIITKKLLESYKGFEGLGTLVDVGGGVGATVAAITAHYPTIKGINFDLPHVISEAPPFPGVTHVGGDMFQKVPSGDAILMKYILHDWSDEHCATLLKNCYDALPAHGKVVLVECILPVNPEATPKAQGVFHVDMIMLAHNPGGRERYEREFEALAKGAGFAAMKTTYIYANAWAIEFTK
Km [µM]: 170.1

Now turn to the next protein.
For TaOMT2 (Triticum aestivum; D263N) (protein) MGSIAAGADEDACMYALQLVSSSILPMTLKNAIELGLLETLMAAGGKFLTPAEVAAKLPSAANPEAPDMVDRMLRLLASYNVVSCRTEDGKDGRLSRRYGAAPVCKYLTPNEDGVSMSALALMNQDKVLMESWYYLKDAVLDGGIPFNKAYGMSAFEYHGTDPRFNRVFNEGMKNHSIIITKKLLESYKGFEGLGTLVDVGGGVGATVAAITAHYPTIKGINFDLPHVISEAPPFPGVTHVGGDMFQKVPSGDAILMKWILHNWSDEHCATLLKNCYDALPAHGKVVLVECILPVNPEATPKAQGVFHVDMIMLAHNPGGRERYEREFEALAKGAGFAAMKTTYIYANAWAIEFTK the protein record lists Km as 128.2
